- Measured target: T1, CD134 protein (His-tagged, Sino Biological Inc. 10481-H08H) (human, UniProt P43489 29-216)
- T1 construct: bought protein coated on ELISA plates; also called OX40; TNFRSF4; not shown: His tag
- T1 sequence (looked up): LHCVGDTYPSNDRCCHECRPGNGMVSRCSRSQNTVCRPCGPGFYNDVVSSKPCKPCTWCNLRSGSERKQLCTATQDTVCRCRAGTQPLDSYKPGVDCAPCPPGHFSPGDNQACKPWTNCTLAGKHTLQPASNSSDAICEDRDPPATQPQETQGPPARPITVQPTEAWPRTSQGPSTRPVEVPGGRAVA
- Assay info: ELISA, coated His-tagged CD134; also: test concentration or dose not given here
Answer each item with its documented ELISA [abs. corr.].
Give your result in abs. corr. as a bare value.

[ask] Name the recorded ELISA [abs. corr.] of the binder listed here: P018.S.12.A.B02 (antibody, V domains shown, V regions on human Ig constant parts; also called AB134_57) VH: QSLEESGGRLVTPGTPLTLTCTVSGIDLSKYTMTWVRQAPGKGLEWIGLISFGGRGGTWYANWAKGRFTISKTSTTVDLRIASPTTEDTATYFCARARYSGTNYDYFNLWGQGTLVTVSS VL: AYDMTQTPASVEVAVGGTVTIKCQASQSISNWLAWYQQKPGQRPKLLIYGASNLESGVPSRFKGSGSGTDFTLTISDLESADAATYYCQQGYSSDGVTNAFGGGTEVVVE
[reply] 2.21

[ask] Complete the entry with ELISA [abs. corr.] for P018.S.11.A.H05 (antibody, V domains shown, V regions on human Ig constant parts; also called AB134_48) VH: QQRLVESGGGLVKPGASLTLTCTASGFSFSSGYDMCWVRQAPGKGLEWVGCIDTATDTIYYASWAPGRFTISKTSSTMVTLQMTSLTAADTATYFCARSVGGVDYAIDLWGPGTLVTVSS VL: AYDMTQTPVSVEVPVGGTVTIKCQASQNIGSRLVWYQQKPGQSPKFLIYYASNLASGVSSRFKGSGSGTQFTLTISDVQSDNAATYYCQQTYSYSDVDDTFGGGTEVVVK
[reply] 1.69

[ask] Using known records, supply ELISA [abs. corr.] for P018.S.08.A.B03 (antibody, V domains shown, V regions on human Ig constant parts; also called AB134_19) VH: QSVEESGGRLVTPGTPLTLTCTVSGFSLSRYAITWVRQAPGKGLEWIGIISSSGTTYYASWAKGRFTISKTSTTVDLKITSPTTEDTAIYFCARAIAGDAGYVYAIDWLDLWGQGTLVTVSS VL: DPVLTQTPSSASEPVGGTVTIKCQASEYISNYLSWYQQKPGQPPKLLIFGASTLESGVPSRFSGSGSGTEFTLTISGVQSADAATYYCQGGYFSSSTTYVAFGGGTEVVVR
[reply] 2.66
